# viability, T/C per record follows
# System: 282377-053-R-J1-PDC complex spheroid viability;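 also: spheroids exposed to agents for seven days before readout; luminescence viability as percent of DMSO vehicle control wells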
# Assay Summary: Anticancer human tumor 282377-053-R-J1-PDC patient-derived colon adenocarcinoma cell line growth inhibition [RAS]
# Details: second compound 0.00949 µM; first compound 0.01 µM; hits give low values
# Description: RAS pathway inhibitors in Combinations in Complex Spheroids A high-throughput screen of multi-cell type tumor spheroids was designed to identify active combinations of RAS pathway inhibitors and targeted small molecules. Complex spheroids include a stromal component modeled by human endothelial cells (HUVEC) and fibroblasts modeled by human mesenchymal stem cells (MSCs). […] Compounds. […] If the clinical Cmax for an agent had not been determined, the highest concentration tested was 10 microM. […]

{"Molecule": "C=CC(=O)N1CCN(c2nc(OCC3CCCN3C)nc3c(F)c(-c4nc(N)cc(C)c4C(F)(F)F)c(Cl)cc23)C(C)C1 (centres undefined) + CCn1c(-c2cc(N3CCN(C)CC3)cnc2C(C)OC)c2c3cc(ccc31)-c1csc(n1)CC(NC(=O)C1CC1C)C(=O)N1CCCC(N1)C(=O)OCC(C)(C)C2", "viability, T/C": "97.6%"}
{"Molecule": "O=C(c1ccc(F)c(F)c1Nc1ccc(I)cc1F)N1CC(O)([C@@H]2CCCCN2)C1 + CCn1c(-c2cc(N3CCN(C)CC3)cnc2C(C)OC)c2c3cc(ccc31)-c1csc(n1)CC(NC(=O)C1CC1C)C(=O)N1CCCC(N1)C(=O)OCC(C)(C)C2", "viability, T/C": "67.4%"}

Summary for this molecule, CC(C)n1nc(-c2ccc3oc(N)nc3c2)c2c(N)ncnc21 + CCn1c(-c2cc(N3CCN(C)CC3)cnc2C(C)OC)c2c3cc(ccc31)-c1csc(n1)CC(NC(=O)C1CC1C)C(=O)N1CCCC(N1)C(=O)OCC(C)(C)C2 : viability, T/C is 73.4%

Summary for this molecule, Nc1ccn(C2OC(CO)C(O)C2(F)F)c(=O)n1 (centres undefined) + CCn1c(-c2cccnc2C(C)OC)c2c3cc(ccc31)N1CCOC(CC(NC(=O)C(C(C)C)N(C)C(=O)C3(F)CCN(C(=O)C#CC(C)(C)N(C)C)CC3)C(=O)N3CCCC(N3)C(=O)OCC(C)(C)C2)C1 : viability, T/C is 97.9%
